# Lookup of reported Plant response rating, Oat, Wild keyed by entry
Test system: Oat, Wild (wild oat, Avena fatua)
test-protocol: Test A1 postemergence, Oat, Wild
Assay type: in vivo
stated-conditions: Postemergence, 125 g ai/ha; 0 to 100 scale
Keep the answer to the number alone.

Field: example entries. Status: answers known.
Cc1cc(C)c(N(COC(=O)N(C)C)S(=O)(=O)C(F)(F)F)cc1C1=NOC2CCCC12 (centres unmarked) [Compound 317]	0
COC(=O)OCN(c1cc(C2=NOC3CCCC23)c(C)cc1C)S(=O)(=O)C(F)(F)F (centres unmarked) [Compound 315]	20

Quick check: Plant response rating, Oat, Wild of Cc1cc(C)c(N(COC(=O)C(C)(C)C)S(=O)(=O)C(F)(F)F)cc1C1=NOC2COCC12 (centres unmarked) [Compound 301] ? 10

Quick check: Plant response rating, Oat, Wild of COc1cc(C)c(C2=NOC3(CCCC3)C2)cc1NS(=O)(=O)C(F)(F)F [Compound 304] ? 0

Quick check: Plant response rating, Oat, Wild of COCC1CC(c2cc(NS(=O)(=O)C(F)(F)F)c(C)cc2C)=NO1 (centres unmarked) [Compound 319] ? 10

Quick check: Plant response rating, Oat, Wild of Cc1c(NS(=O)(=O)C(F)(F)F)cc(C(=O)N(C)C)c(C)c1C [Compound 288] ? 0

Quick check: Plant response rating, Oat, Wild of Cc1c(C(=O)N2CCC(F)CC2)cc(N(COC(=O)C(C)(C)C)S(=O)(=O)C(F)(F)F)c(C)c1C [Compound 361] ? 20

Quick check: Plant response rating, Oat, Wild of CCOC1CC(c2cc(NS(=O)(=O)C(F)(F)F)c(C)cc2C)=NO1 (centres unmarked) [Compound 318] ? 10
